What growth inhibition was measured for each of the following?
test: inhibition of 3D7 malaria parasite growth – strain 3D7 (AID 2306);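 further: 0% = DMSO wells and 100% = chloroquine plus artemisinin control wells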; details: P. falciparum 3D7 erythrocytic growth, LDH absorbance, 72 h; at 2 µM; hits give high values
Reply with just the number (in %).

Prompt line: Kindly indicate its recorded growth inhibition. Item: Cc1cccc(NC(=O)Nc2cccc(-c3ccc(-c4nc5ccc(C(F)(F)F)cc5[nH]4)cc3)c2)c1
Response line: 101

Prompt line: Kindly indicate its recorded growth inhibition. Item: OCCc1ccc(Nc2nccc(-c3nnc4ccccn34)n2)cc1
Response line: 93

Prompt line: Kindly indicate its recorded growth inhibition. Item: O=C(COc1ccc(Cl)c(Cl)c1)NCCCCCN1CCCN(C(=O)Nc2ccc(Cl)c(Cl)c2)CC1
Response line: 93

Prompt line: Kindly indicate its recorded growth inhibition. Item: CCN(CC)CCNc1ccc(Nc2ccnc3cc4ccccc4cc23)cc1
Response line: 102

Prompt line: Kindly indicate its recorded growth inhibition. Item: COc1cccc(-c2cccc(CNC3CCN(CC4Cn5c(=O)ccc6ccc(F)c4c65)CC3)c2)c1 (centres undefined)
Response line: 99

Prompt line: Kindly indicate its recorded growth inhibition. Item: COc1c(C2CCN(CCCCNC(=O)c3cccc(-c4ccc(C(F)(F)F)cc4)c3)CC2)ccc2c1CCCC2
Response line: 92

Prompt line: Kindly indicate its recorded growth inhibition. Item: O=C(NCCc1ccc(Cl)c(Cl)c1)[C@@H]1CCCN1C(=O)c1ccc(O)c(-c2cccc(C(F)(F)F)c2)c1
Response line: 97

Prompt line: Kindly indicate its recorded growth inhibition. Item: CSCCCN1CCC(O)(c2ccc3oc(C(=O)Nc4ccc5sc(C)nc5c4)cc3c2)CC1
Response line: 101

Prompt line: Kindly indicate its recorded growth inhibition. Item: O=C(Nc1cccc(CN2CCCN(CC3CCCCC3)CC2)c1)c1cc2ccccc2s1
Response line: 96

Origin of the recorded values: PubChem BioAssay
